- Target: Mothers against decapentaplegic homolog 2/homolog 3 (Homo sapiens, UniProt P84022+Q15796)
- Test: Inhibition of TGF-beta induced Smad2/3 signaling in human HepG2 cells harboring pRL-EF1alpha, (CAGA)9x-MLP-Luc plasmid assessed as luciferase activity incubated for 24 hrs by Promega reporter rene assay
- Type: cell-based
This section presents compounds with their documented IC50 values.
Form entry: value (nM) — number only.

>>> endpoint_value("C/C1=C\\CCC(C)(C)C(C)OC(=O)Cc2c(Cl)c(O)cc(O)c2C1=O (centres undefined)")
30
>>> endpoint_value("C/C1=C\\CCC(C)(O)C(C)OC(=O)Cc2c(Cl)c(O)cc(O)c2C1=O (centres undefined)")
137
>>> endpoint_value("C/C1=C\\CC[C@H](C)[C@@H](C)OC(=O)Cc2c(Cl)c(O)cc(O)c2C1=O")
90

Look at this compound and give its reported IC50. C/C1=C\C[C@@H](O)[C@H](C)[C@@H](C)OC(=O)Cc2c(Cl)c(O)cc(O)c2C1=O
236
